# credit: the Human Domainome abundance scans (Beltran et al. 2025)

B1: Far upstream element-binding protein 2, residues 142 to 214; numbered along this chain, Q92945 (parent)
chain: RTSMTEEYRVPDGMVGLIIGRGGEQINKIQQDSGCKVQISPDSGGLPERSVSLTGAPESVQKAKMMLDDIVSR

variants of: B1; experiment: abundance fitness (aPCA) (normalised: wild type 0, dead -1); higher = more abundant; growth selection in yeast, the domain comes from the species named; settings: Homo sapiens
// values below are reported abundance fitness
Measurement Name: abundance fitness

1) Q61V    -0.102
2) I26D    -0.549
3) G20K    -0.401
4) P41T    -0.05
5) Q38N    -0.025
6) P57I    -0.289
7) G34C    -0.356
8) G44M    0.007
9) E58Y    -0.203
10) E48F    -0.109
11) T54F    -0.278
12) K36L    -0.043
13) K62N    -0.449
14) E48C    -0.169
15) E58Q    -0.122
16) G22K    -0.12
17) G22Y    -0.226
18) L53V    -0.369
19) G44L    -0.125
20) V71Y    -0.22
21) Q38D    -0.112
22) S40L    0.01
